Species on record: Homo sapiens
Assay: Selectivity ratio of IC50 for human SIRT2 to IC50 for human SIRT6
outcome-measure: Ratio IC50

O=c1[nH]c(=O)c2cc(S(=O)(=O)Nc3ccc(Cn4ccnc4)cc3)ccc2[nH]1	2.65

1. O=c1[nH]c(=O)c2cc(S(=O)(=O)Nc3cccc(CCc4ccncc4)c3)ccc2[nH]1
2. Cn1c(=O)c2cc(S(=O)(=O)Nc3ccc(Cc4ccncc4)cc3)ccc2n(C)c1=O
3. O=c1[nH]c(=O)c2cc(S(=O)(=O)Nc3ccc(Oc4cccnc4)cc3)ccc2[nH]1
Ask: Task for the reader: rank each entry by its Ratio IC50, from the minimum upward. To answer, write out the labels according to the requested order.
Reply: 3, 1, 2
(3: 1.07, 1: 2.3, 2: 4.94)
